# assayedSystem: beta-catenin (human)
# Sequence (B6V8E6 146-665 limits assumed): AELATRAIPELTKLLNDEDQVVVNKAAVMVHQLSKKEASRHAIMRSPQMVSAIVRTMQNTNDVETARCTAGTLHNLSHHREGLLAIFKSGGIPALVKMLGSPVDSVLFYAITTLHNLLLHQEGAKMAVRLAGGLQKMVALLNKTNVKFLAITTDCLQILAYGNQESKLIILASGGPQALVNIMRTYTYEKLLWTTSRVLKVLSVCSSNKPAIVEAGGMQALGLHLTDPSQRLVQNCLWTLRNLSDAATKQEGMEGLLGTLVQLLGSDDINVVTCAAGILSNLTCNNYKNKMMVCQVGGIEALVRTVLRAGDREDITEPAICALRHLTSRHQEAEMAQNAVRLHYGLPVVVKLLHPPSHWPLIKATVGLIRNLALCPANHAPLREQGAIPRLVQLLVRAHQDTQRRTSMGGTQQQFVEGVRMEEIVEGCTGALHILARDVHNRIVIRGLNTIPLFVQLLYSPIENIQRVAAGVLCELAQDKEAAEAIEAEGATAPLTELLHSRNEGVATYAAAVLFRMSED
# protocolSummary: cell-based or functional assay
*1 amine or outer side, *2 acyl side, *3 side chain or, on linkers, in order; H or OH if unused. Bridges are numbered along the chain shown (N, C = ends). Primed or numbered codes have the meaning given here. [ ]: non-standard residue; d: D form. PyrS2″ = (S)-3-amino-1-((pent-4-en-1-yloxy)carbonyl)pyrrolidine-3-carboxylic acid (olefin stapling residue), C=CCCCOC(=O)N1CC[C@@](N[*:1])(C(=O)[*:2])C1; 2F3MeF″ = aromatic residue, Cc1cccc(C[C@H](N[*:1])C(=O)[*:2])c1F; Phe(3-COOH) = N[C@@H](Cc1cccc(C(=O)O)c1)C(=O)O; αAllylPro = C=CC[C@@]1(C(=O)O)CCCN1; tBuAla = CC(C)(C)C[C@H](N)C(=O)O; BztA″ = aromatic residue; Nle = CCCC[C@H](N)C(=O)O; GlnR = not defined here; B5 = not defined here
measuredProperty: NanoBRET Abs IC50

Request: // lookup NanoBRET Abs IC50 for Ac-[αAllylPro]N[tBuAla][B5]D[Phe(3-COOH)][Nle]AFK[PyrS2″][2F3MeF″][BztA″][GlnR]LS-NH2 (bridge 10-14; not fully specified (bridges); printed as Ac-PL3-Asn-Npg-B5-Asp-3COOHF-nLeu-Ala-Phe-Lys*3-PyrS2-2F3MeF-BztA-GlnR*3-Leu-Ser-NH2; reading uncertain; also: Lys10 and GlnR14 marked *3) [I-143]
Response: > 10 µM
